test: Plasma concentration in male C57BL/6 mouse at 2 mg/kg, iv administered as single dose measured at 1 hr measured by LC/MS-MS analysis; type: ADME, organism-based
readout.name: concentration at 1 h (ng/mL)
Provide the reading as a plain figure in ng/mL.

-- ask What measured concentration at 1 h goes with `Cl.[2H]C1([2H])Oc2ccc(Nc3nc(-c4c(C)nc5ccccn45)cs3)cc2O1` ?
-- reply 9.57

----------
test: Brain concentration in male C57BL/6 mouse at 10 mg/kg, po administered as single dose measured at 12 hrs measured by LC/MS-MS analysis; assay type: ADME, organism-based; settings: read-out: Drug uptake
readout.name: concentration at 12 h
Could you kindly put the unit after your number?

-- ask Consider the compound shown here: `Cc1nc2ccccn2c1-c1csc(Nc2ccc3c(c2)OC(F)(F)O3)n1.Cl` What is its recorded concentration at 12 h?
-- reply 3.9 ng/g

----------
test: Cmax in male C57BL/6 mouse brain at 2 mg/kg, iv measured by LC/MS-MS analysis; assay type: ADME, organism-based; design: route intravenous, dose 2 mg/kg
readout.name: Cmax (ng/g)
Answer in ng/g, number only, no unit symbol.

-- ask Given the entry `Cl.[2H]C1([2H])Oc2ccc(Nc3nc(-c4c(C)nc5ccccn45)cs3)cc2O1` , report its measured Cmax.
-- reply 44.9

----------
assay: Plasma concentration in male C57BL/6 mouse at 10 mg/kg, ip administered as single dose measured at 6 hrs measured by LC/MS-MS analysis; assay type: ADME, organism-based
readout.name: concentration at 6 h (ng/mL)
Lab book: enter the figure in ng/mL, no units written.

-- ask So what's the measured concentration at 6 h for this one? `Cl.[2H]C1([2H])Oc2ccc(Nc3nc(-c4c(C)nc5ccccn45)cs3)cc2O1`
-- reply 43.7

----------
experiment: Plasma concentration in male C57BL/6 mouse at 2 mg/kg, iv administered as single dose measured at 0.08 hrs measured by LC/MS-MS analysis; format: ADME, organism-based
readout.name: concentration at 0.08 h (ng/mL)
Write the value in ng/mL as a bare number.

-- ask Field request: concentration at 0.08 h | item: `Cl.[2H]C1([2H])Oc2ccc(Nc3nc(-c4c(C)nc5ccccn45)cs3)cc2O1`
-- reply 256

----------
Collected concentration at 0.35 h values appear next to each entry.
assay: Brain concentration in male C57BL/6 mouse at 10 mg/kg, ip administered as single dose measured at 0.35 hrs measured by LC/MS-MS analysis; type: ADME, organism-based; conditions: read-out: Drug uptake
The figure you give is taken to be in ng/g; do not add the unit.

Cc1nc2ccccn2c1-c1csc(Nc2ccc3c(c2)OC(F)(F)O3)n1.Cl
680

Here is another compound to look at.
-- ask GET /values?readout=concentration at 0.35 h&item= `Cl.[2H]C1([2H])Oc2ccc(Nc3nc(-c4c(C)nc5ccccn45)cs3)cc2O1`
-- reply 236

----------
Reported concentration at 0.08 h values follow for various compounds
assay: Plasma concentration in male C57BL/6 mouse at 10 mg/kg, po administered as single dose measured at 0.08 hrs measured by LC/MS-MS analysis; assay type: ADME, organism-based
Hi! Could you send only the number? It should be in ng/mL, unit omitted.

Cl.[2H]C1([2H])Oc2ccc(Nc3nc(-c4c(C)nc5ccccn45)cs3)cc2O1
207

As a next step, examine the compound that follows.
-- ask For the compound `Cc1nc2ccccn2c1-c1csc(Nc2ccc3c(c2)OC(F)(F)O3)n1.Cl` , what concentration at 0.08 h is on record?
-- reply 175

----------
Recorded concentration at 6 h values for a group of compounds are listed next.
assay: Brain concentration in male C57BL/6 mouse at 10 mg/kg, po administered as single dose measured at 6 hrs measured by LC/MS-MS analysis; assay type: ADME, organism-based; conditions: read-out: Drug uptake
Answer with a number only, understood to be in ng/g.

Cl.[2H]C1([2H])Oc2ccc(Nc3nc(-c4c(C)nc5ccccn45)cs3)cc2O1
10.5

Next compound, please.
-- ask Quick one: concentration at 6 h for `Cc1nc2ccccn2c1-c1csc(Nc2ccc3c(c2)OC(F)(F)O3)n1.Cl` ?
-- reply 4.52

----------
experiment: Ratio of drug level in male C57BL/6 mouse brain to plasma at 10 mg/kg, iv administered as single dose measured at 6 hrs measured by LC/MS-MS analysis; type: ADME, organism-based; conditions: read-out: BPR
readout.name: Kp at 6 h

-- ask Kp at 6 h for `Cc1nc2ccccn2c1-c1csc(Nc2ccc3c(c2)OC(F)(F)O3)n1.Cl` ?
-- reply 1.81

----------
assay: Brain concentration in male C57BL/6 mouse at 10 mg/kg, ip administered as single dose measured at 24 hrs measured by LC/MS-MS analysis; type: ADME, organism-based; conditions: read-out: Drug uptake
readout.name: concentration at 24 h (ng/g)
Entry rule: numbers only, all in ng/g.

-- ask Quick check: concentration at 24 h of `Cc1nc2ccccn2c1-c1csc(Nc2ccc3c(c2)OC(F)(F)O3)n1.Cl` ?
-- reply 6.21

----------
assay: Plasma concentration in male C57BL/6 mouse at 10 mg/kg, iv administered as single dose measured at 0.35 hrs measured by LC/MS-MS analysis; assay type: ADME, organism-based
readout.name: concentration at 0.35 h
# output: numeric value plus its unit

-- ask I have this compound here, `Cc1nc2ccccn2c1-c1csc(Nc2ccc3c(c2)OC(F)(F)O3)n1.Cl` , and I need its recorded concentration at 0.35 h.
-- reply 535 ng/mL

----------
Some molecules, each annotated with its measured concentration at 1 h.
test: Brain concentration in male C57BL/6 mouse at 10 mg/kg, ip administered as single dose measured at 1 hr measured by LC/MS-MS analysis; assay type: ADME, organism-based; details: read-out: Drug uptake
State just the number; it will be interpreted in ng/g.

Cl.[2H]C1([2H])Oc2ccc(Nc3nc(-c4c(C)nc5ccccn45)cs3)cc2O1
90.3

Proceeding to the next molecule to report its concentration at 1 h.
-- ask Sample `Cc1nc2ccccn2c1-c1csc(Nc2ccc3c(c2)OC(F)(F)O3)n1.Cl` — what was its concentration at 1 h?
-- reply 159

----------
assay: Plasma concentration in male C57BL/6 mouse at 10 mg/kg, iv administered as single dose measured at 3 hrs measured by LC/MS-MS analysis; type: ADME, organism-based
readout.name: concentration at 3 h (ng/mL)
# output: bare number, implied unit ng/mL

-- ask Using the record for `Cc1nc2ccccn2c1-c1csc(Nc2ccc3c(c2)OC(F)(F)O3)n1.Cl` , report its concentration at 3 h.
-- reply 5.64

----------
experiment: Ratio of drug level in male C57BL/6 mouse brain to plasma at 10 mg/kg, iv administered as single dose measured at 3 hrs measured by LC/MS-MS analysis; type: ADME, organism-based; conditions: read-out: BPR
readout.name: Kp at 3 h
Reply: number alone, nothing else.

-- ask Tell me the measured Kp at 3 h of `Cc1nc2ccccn2c1-c1csc(Nc2ccc3c(c2)OC(F)(F)O3)n1.Cl` , please.
-- reply 1.73

----------
assay: Ratio of drug level in male C57BL/6 mouse brain to plasma at 10 mg/kg, po administered as single dose measured at 3 hrs measured by LC/MS-MS analysis; format: ADME, organism-based; conditions: read-out: BPR
readout.name: Kp at 3 h
Write no unit; give the number alone.

-- ask Please report the recorded Kp at 3 h for `Cc1nc2ccccn2c1-c1csc(Nc2ccc3c(c2)OC(F)(F)O3)n1.Cl` .
-- reply 4.34

----------
experiment: Ratio of drug level in male C57BL/6 mouse brain to plasma at 10 mg/kg, ip administered as single dose measured at 0.08 hrs measured by LC/MS-MS analysis; type: ADME, organism-based; settings: read-out: BPR
readout.name: Kp at 0.08 h
Quick one: just the number, no unit, thanks!

-- ask Given the compound `Cc1nc2ccccn2c1-c1csc(Nc2ccc3c(c2)OC(F)(F)O3)n1.Cl` , what is its reported Kp at 0.08 h?
-- reply 1.05

----------
test: Oral bioavailability in male C57BL/6 mouse plasma at 10 mg/kg measured by LC/MS-MS analysis; format: ADME, organism-based
readout.name: bioavailability (%)
Value expressed in %; do not type the unit.

-- ask Consider the compound `Cl.[2H]C1([2H])Oc2ccc(Nc3nc(-c4c(C)nc5ccccn45)cs3)cc2O1` and give its measured bioavailability.
-- reply 100

----------
experiment: Ratio of drug level in male C57BL/6 mouse brain to plasma at 10 mg/kg, po administered as single dose measured at 0.08 hrs measured by LC/MS-MS analysis; format: ADME, organism-based; details: read-out: BPR
readout.name: Kp at 0.08 h

-- ask GET /values?readout=Kp at 0.08 h&item= `Cc1nc2ccccn2c1-c1csc(Nc2ccc3c(c2)OC(F)(F)O3)n1.Cl`
-- reply 0.78

----------
Reported concentration at 0.35 h values are given for each entry in this list.
assay: Plasma concentration in male C57BL/6 mouse at 10 mg/kg, po administered as single dose measured at 0.35 hrs measured by LC/MS-MS analysis; assay type: ADME, organism-based
# output: numeric value plus its unit

-- ask Which concentration at 0.35 h value is on record for `Cc1nc2ccccn2c1-c1csc(Nc2ccc3c(c2)OC(F)(F)O3)n1.Cl` ?
-- reply 138 ng/mL

-- ask Proceed to `Cl.[2H]C1([2H])Oc2ccc(Nc3nc(-c4c(C)nc5ccccn45)cs3)cc2O1`
-- reply 163 ng/mL
